Entries and their IC50
System: D283 Med
Experiment: OncoPanel cytotoxicity assay
Format: cell-based
Settings: Homo sapiens, 72 hour incubation

| Molecule | Target or system | Measurement units | IC50 |
| --- | --- | --- | --- |
| CC[C@@H]1CNC2(CC2)CN1C(=O)[C@@H]1C[C@@H](F)CN1C(=O)C1=C(C(C)C)N2C(=N[C@@](C)(c3ccc(Cl)nc3)[C@H]2c2ccc(Cl)c(F)c2)S1 [Compound A] | D283 Med | nM | 529 |
| CC1(C)CCC2(CC1)N[C@@H](C(=O)N[C@@H]1CC[C@@H](C(N)=O)OC1)[C@H](c1ccnc(Cl)c1F)[C@]21C(=O)Nc2cc(Cl)ccc21 [Compound B] | D283 Med | nM | 81.9 |
